Target: human-type PPAR γ ligand-binding domain (Homo sapiens, UniProt P37231)
Construct: made in house; host or cells: Escherichia coli
Sequence (P37231 238-503 limits assumed): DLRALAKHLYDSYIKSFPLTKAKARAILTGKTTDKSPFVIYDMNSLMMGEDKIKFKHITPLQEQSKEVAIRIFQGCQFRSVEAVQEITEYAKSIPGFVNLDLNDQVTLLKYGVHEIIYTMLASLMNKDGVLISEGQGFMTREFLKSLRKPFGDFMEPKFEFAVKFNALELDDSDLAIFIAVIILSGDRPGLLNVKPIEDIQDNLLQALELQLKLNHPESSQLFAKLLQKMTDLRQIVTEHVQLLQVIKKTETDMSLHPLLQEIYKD
Experiment: Competition binding with [3H]KRP-297 to 6×His-hPPARγ ligand-binding domain
Conditions: competition with 100 nM [3H]KRP-297; test concentration not given
Form field: Binding to the ligand-binding domain of PPARγ (one value per entry).
Record the value in %, omitting the unit from your answer.

# annotated cases, reported Binding to the ligand-binding domain of PPARγ shown
Request: Look up Binding to the ligand-binding domain of PPARγ for this compound: CCCCCCCCCCCCCCCC(=O)SCCNC(=O)CCNC(=O)[C@H](O)C(C)(C)COP(=O)(O)OP(=O)(O)OC[C@H]1O[C@@H](n2cnc3c(N)ncnc32)[C@H](O)[C@@H]1OP(=O)(O)O [Palmitoyl CoA]
Response: 72

Request: Look up Binding to the ligand-binding domain of PPARγ for this compound: CCCCCCCCCCCCCC(=O)SCCNC(=O)CCNC(=O)[C@H](O)C(C)(C)COP(=O)(O)OP(=O)(O)OC[C@H]1O[C@@H](n2cnc3c(N)ncnc32)[C@H](O)[C@@H]1OP(=O)(O)O [Myristoyl CoA]
Response: 45

Note: attention shifts to another entry.
Request: Look up Binding to the ligand-binding domain of PPARγ for this compound: CCCCCCCCCCCCCCCCCC(=O)SCCNC(=O)CCNC(=O)[C@H](O)C(C)(C)COP(=O)(O)OP(=O)(O)OC[C@H]1O[C@@H](n2cnc3c(N)ncnc32)[C@H](O)[C@@H]1OP(=O)(O)O [Stearoyl CoA]
Response: 89
